target: T1, HLA-A*01:01_… (HLA-PEPTIDE target G2), recombinant biotinylated complex (human, enzymatically biotinylated (BirA)); assay: phage panning, scFv ELISA;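 also: scFv binders from three to four bead panning rounds, tested as PPEs by ELISA on streptavidin plates carrying peptide-HLA complex (2 µg/ml), detected via anti-V5 and HRP anti-mouse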
T1 construct: also called G2-pHLA
value_kind: binding result

[[record]]
binder = "G2(1D07) scFv (scFv, V domains shown) VH: QVQLVQSGAEVKKPGASVKVSCKASGYTFTSYGISWVRQAPGQGLEWMGWISAYNGYTNYAQNLQGRVTMTRDTSTSTVYMELSSLRSEDTAVYYCARDQFYGGNSGGHDYWGQGTLVTVSS VL: DIQMTQSPSSLSASVGDRVTITCQASQDISNYLNWYQQKPGKAPKLLIYAASSLQSGVPSRFSGSGSGTDFTLTISSLQPEDFATYYCQQSYSTPLTFGGGTKLEIK"
value_kind = "binding result"
observed = "binds"

[[record]]
binder = "G2(2H10) scFv (scFv, V domains shown) VH: QVQLVQSGAEVKKPGASVKVSCKASGYSFTRYNMHWVRQAPGQGLEWMGWINPNSGGTNYAQKFQGRVTMTRDTSTSTVYMELSSLRSEDTAVYYCARDGYSGLDVWGKGTTVTVSS VL: DIQMTQSPSSLSASVGDRVTITCRASQSISSWLAWYQQKPGKAPKLLIYGASSLQSGVPSRFSGSGSGTDFTLTISSLQPEDFATYYCQQSYSVPYSFGQGTKLEIK"
value_kind = "binding result"
observed = "binds"

[[record]]
binder = "G2(2A10) scFv (scFv, V domains shown) VH: EVQLLESGAEVKKPGASVKVSCKASGYSFTDYIVHWVRQAPGQGLEWMGWINPYSGGTKYAQKFQGRVTMTRDTSTSTVYMELSSLRSEDTAVYYCARVLQEGMDVWGQGTLVTVSS VL: DIQMTQSPSSLSASVGDRVTITCRASQSISSYLNWYQQKPGKAPKLLIYGVSSLQSGVPSRFSGSGSGTDFTLTISSLQPEDFATYYCQQSYSNPTFGQGTKVEIK"
value_kind = "binding result"
observed = "binds"

